All values here come from patent US5843954A.

- assay-name: Acute toxicity test by intraperitoneal administration
- condition: mouse, in vivo, ip, ICR male mice, 1 week observation
Categorized via LD50 at 168 h: class A = under 100 mg/kg, class B = from 100 mg/kg up to 300 mg/kg, class C = 300 mg/kg and over

Field: example entries. Status: answers known.
molecule=CCc1c2c(nc3cc(Cl)ccc13)-c1cc([C@@](O)(CC)C(=O)NCCN(C)C)c(COC(=O)CCSC)c(=O)n1C2 class_label="class B"
molecule=CCCC(=O)OCc1c([C@@](O)(CC)C(=O)NCCN(C)C)cc2n(c1=O)Cc1c-2nc2cc(Cl)c(Cl)cc2c1CC class_label="class A"
molecule=CCc1c2c(nc3cc(F)c(F)cc13)-c1cc([C@@](O)(CC)C(=O)NCCN(C)C)c(COC(=O)c3ccc(OC)cc3)c(=O)n1C2 class_label="class A"
molecule=CCC(=O)OCc1c([C@@](O)(CC)C(=O)NCCN(C)C)cc2n(c1=O)Cc1c-2nc2ccc(O)cc2c1CC class_label="class C"
molecule=CCc1c2c(nc3ccc(Br)cc13)-c1cc([C@@](O)(CC)C(=O)NCCN(C)C)c(COC(=O)CCSC)c(=O)n1C2 class_label="class B"
molecule=CCc1c2c(nc3ccc(C)cc13)-c1cc([C@@](O)(CC)C(=O)NCCN(C)C)c(COC(=O)c3ccncc3)c(=O)n1C2 class_label="class C"
molecule=CCc1c2c(nc3ccc(O)cc13)-c1cc([C@@](O)(CC)C(=O)NCCN(C)C)c(COC(=O)C(C)C)c(=O)n1C2 class_label="class C"
molecule=CCOCCC(=O)OCc1c([C@@](O)(CC)C(=O)NCCN(C)C)cc2n(c1=O)Cc1c-2nc2ccc(O)cc2c1CC class_label="class C"
molecule=CCC(=O)OCc1c([C@@](O)(CC)C(=O)NCCN(C)C)cc2n(c1=O)Cc1c-2nc2cc(F)c(OC)cc2c1CC class_label="class A"
molecule=CCc1c2c(nc3ccc(Cl)cc13)-c1cc([C@@](O)(CC)C(=O)NCCN(C)C)c(COC(=O)c3ccncc3)c(=O)n1C2 class_label="class B"

Q. // return the class label for CCc1c2c(nc3ccc(OC(C)=O)cc13)-c1cc([C@@](O)(CC)C(=O)NCCN(C)C)c(COC(=O)c3ccc(F)cc3)c(=O)n1C2
A. class C

Q. Again, but for CCc1c2c(nc3cc(F)ccc13)-c1cc([C@@](O)(CC)C(=O)NCCN(C)C)c(COC(=O)c3ccc(OC)cc3)c(=O)n1C2
A. class B

Q. Same question for CCc1c2c(nc3cc(F)c(OC)cc13)-c1cc([C@@](O)(CC)C(=O)NCCN(C)C)c(COC(=O)c3ccncc3)c(=O)n1C2 please.
A. class B

Q. Record: CCc1c2c(nc3ccc(Cl)cc13)-c1cc([C@@](O)(CC)C(=O)NCCN(C)C)c(COC(=O)CCSC)c(=O)n1C2
A. class B

Q. Further, for CCCC(=O)OCc1c([C@@](O)(CC)C(=O)NCCN(C)C)cc2n(c1=O)Cc1c-2nc2cc(F)c(C)cc2c1CC ?
A. class B

Q. What do you get for CCc1c2c(nc3ccc(O)cc13)-c1cc([C@@](O)(CC)C(=O)NCCN(C)C)c(COC(=O)c3cccc(F)c3)c(=O)n1C2 ?
A. class C

Q. Please answer likewise for CCOc1ccc2nc3c(c(C)c2c1)Cn1c-3cc([C@@](O)(CC)C(=O)NCCN(C)C)c(COC(=O)CCSC)c1=O
A. class B

Q. And for CCCC(=O)OCc1c([C@@](O)(CC)C(=O)NCCN(C)C)cc2n(c1=O)Cc1c-2nc2ccc(Cl)cc2c1CC ?
A. class B

Q. Try this molecule too: CCc1c2c(nc3cc(F)ccc13)-c1cc([C@@](O)(CC)C(=O)NCCN(C)C)c(COC(=O)c3ccncc3)c(=O)n1C2
A. class B

Q. CCCC(=O)OCc1c([C@@](O)(CC)C(=O)NCCN(C)C)cc2n(c1=O)Cc1c-2nc2cc(F)c(OC)cc2c1CC ?
A. class B

Q. Let us now turn to CCc1c2c(nc3ccc(O)cc13)-c1cc([C@@](O)(CC)C(=O)NCCN(C)C)c(COC(C)=O)c(=O)n1C2
A. class C

Q. Then this molecule: CC[C@@](O)(C(=O)NCCN(C)C)c1cc2n(c(=O)c1COC(=O)CCSC)Cc1c-2nc2cc(Br)ccc2c1C
A. class B

Q. Now give it for CCC(=O)OCc1c([C@@](O)(CC)C(=O)NCCN(C)C)cc2n(c1=O)Cc1c-2nc2cc(F)c(F)cc2c1CC too.
A. class A

Q. Follow-up item: CCc1c2c(nc3cc(F)c(F)cc13)-c1cc([C@@](O)(CC)C(=O)NCCN(C)C)c(COC(=O)CCSC)c(=O)n1C2
A. class A
